- test_system: β1c (Homo sapiens, UniProt P28072+Q99436)
- Construct: protease activity associated with the proteasome complex in cultured cells; endogenous in cells
- assay_method_text: Cell-Based Proteasome Activity/Selectivity Assay (Ramos cells), substrate (LLE)2 Rh110
- details: highest concentration tested 20 μM
pIC50: −log10 of the molar value.
endpoint: pIC50

C[C@H](NC(=O)C1Cc2ccccc2C1)C(=O)N[C@@H](CCc1ccccc1)C(=O)N[C@@H](Cc1ccccc1)C(=O)C(=O)NCc1ccccc1 | 4.74
C[C@H](NC(=O)OCc1ccccc1)C(=O)N[C@@H](Cc1c[nH]c2ccccc12)C(=O)N[C@@H](Cc1ccccc1)C(=O)C(=O)NC1CC1 | 4.91

a: CCCC[C@H](NC(=O)[C@H](Cc1c[nH]c2ccccc12)NC(=O)[C@H](C)NC(=O)c1cccc(Cl)c1Cl)C(=O)C(=O)NCc1ccccc1
b: C[C@H](NC(=O)C1Cc2ccccc2C1)C(=O)N[C@@H](Cc1c[nH]c2ccccc12)C(=O)N[C@@H](Cc1ccccc1)C(=O)C(=O)NCc1ccccc1
c: C[C@H](NC(=O)C1Cc2ccccc2C1)C(=O)N[C@@H](Cc1ccccc1)C(=O)N[C@@H](Cc1ccccc1)C(=O)C(=O)NCc1ccccc1
Put the items in order so that reported pIC50 rises from first to last. Form field (ranking): labels in requested order.
c, a, b

Reference source: patent US20150274777A1
